Species on record: Bos taurus
Assay: Inhibition of bovine chymotrypsin assessed as inactivation constant using flurogenic substrate as chymotrypsin substrate 2 by fluorescence assay

| compound | Kinact [×10⁻³ /s] |
| --- | --- |
| CCCP(=O)(Oc1ccccc1)C(NC(=O)OCc1ccccc1)c1ccccc1 (stereo unspecified) | 5.84 |
| CCCP(=O)(Oc1ccccc1)C(CC(C)C)NC(=O)OCc1ccccc1 (stereo unspecified) | 2.44 |
| O=C(NC(Cc1ccccc1)P(=O)(Oc1ccccc1)c1ccccc1)OCc1ccccc1 (stereo unspecified) | 23 |
| O=C(NC(c1ccccc1)P(=O)(Oc1ccccc1)c1ccccc1)OCc1ccccc1 (stereo unspecified) | 1.57 |
| O=C(NC(Cc1ccccc1)P(=O)(Oc1ccccc1)Oc1ccccc1)OCc1ccccc1 (stereo unspecified) | 5.63 |
| CC(C)CC(NC(=O)OCc1ccccc1)P(=O)(Oc1ccccc1)c1ccccc1 (stereo unspecified) | 21.1 |

* * *

Organism: Bos taurus
Experiment: Inhibition of bovine chymotrypsin at 100 uM preincubated for 30 mins followed by FP-rhodamine addition measured after 30 mins by fluorescence assay
Calls of active or inactive are those of the source. No cut-off for these calls is given here.
Labels: active, inactive

| molecule | group_label |
| --- | --- |
| O=C(NC(c1ccccc1)P(=O)(Oc1ccccc1)c1ccccc1)OCc1ccccc1 (stereo not given) | active |
| CCCP(=O)(Oc1ccccc1)C(NC(=O)OCc1ccccc1)C(C)C (stereo not given) | inactive |
| CCCP(=O)(Oc1ccccc1)C(CC(C)C)NC(=O)OCc1ccccc1 (stereo not given) | active |
| CC(C)CC(NC(=O)OCc1ccccc1)P(=O)(Oc1ccccc1)C(C)(C)C (stereo not given) | inactive |
| CC(C)C(NC(=O)OCc1ccccc1)P(=O)(Oc1ccccc1)c1ccccc1 (stereo not given) | active |
| CC(C)(C)P(=O)(Oc1ccccc1)C(NC(=O)OCc1ccccc1)c1ccccc1 (stereo not given) | inactive |
| CCCP(=O)(Oc1ccccc1)C(NC(=O)OCc1ccccc1)c1ccccc1 (stereo not given) | active |
| CC(C)CC(NC(=O)OCc1ccccc1)P(=O)(Oc1ccccc1)c1ccccc1 (stereo not given) | active |
| O=C(NC(Cc1ccccc1)P(=O)(Oc1ccccc1)c1ccccc1)OCc1ccccc1 (stereo not given) | active |
| CC(C)C(NC(=O)OCc1ccccc1)P(=O)(Oc1ccccc1)C(C)(C)C (stereo not given) | inactive |

* * *

Assay: Inhibition of bovine chymotrypsin using flurogenic substrate as chymotrypsin substrate 2 by fluorescence assay
Parameters: species or system Bos taurus
log10 Ki reference
property_label: log10 Ki (log10 of the value in µM)

| compound | log10 Ki |
| --- | --- |
| CCCP(=O)(Oc1ccccc1)C(NC(=O)OCc1ccccc1)c1ccccc1 (configuration not stated) | 1.16 |
| O=C(NC(c1ccccc1)P(=O)(Oc1ccccc1)c1ccccc1)OCc1ccccc1 (configuration not stated) | -0.34 |
| O=C(NC(Cc1ccccc1)P(=O)(Oc1ccccc1)Oc1ccccc1)OCc1ccccc1 (configuration not stated) | -0.16 |
| CC(C)CC(NC(=O)OCc1ccccc1)P(=O)(Oc1ccccc1)c1ccccc1 (configuration not stated) | 1.33 |
| O=C(NC(Cc1ccccc1)P(=O)(Oc1ccccc1)c1ccccc1)OCc1ccccc1 (configuration not stated) | 0.15 |
| CC(C)C(NC(=O)OCc1ccccc1)P(=O)(Oc1ccccc1)c1ccccc1 (configuration not stated) | 0.87 |
| CCCP(=O)(Oc1ccccc1)C(CC(C)C)NC(=O)OCc1ccccc1 (configuration not stated) | 1.11 |
